Tested on: P.aeruginosa C2027
test: In vitro antibacterial activity, minimum inhibitory concentration
Assay type: cell-based
conditionNotes: Pseudomonas aeruginosa; P.aeruginosa C2027; read-out: Minimum Inhibitory Concentration (MIC)
observedProperty: MIC (µg/mL)

[a] Nc1nc(/C(=N/O)C(=O)N[C@@H]2C(=O)N3C(C(=O)[O-])=C(C[n+]4ccc5[nH]c(=O)[nH]c5c4)CS[C@H]23)ns1 [Ex. 7]
[b] Nc1nc(/C(=N/OCF)C(=O)N[C@@H]2C(=O)N3C(C(=O)[O-])=C(C[n+]4ccc5[nH]c(=O)[nH]c5c4)CS[C@H]23)ns1 [Ex. 9]
[c] CO/N=C(\C(=O)N[C@@H]1C(=O)N2C(C(=O)[O-])=C(C[n+]3cccc4c3CCC4)CS[C@H]12)c1csc(N)n1 [CPR, Cefpirome, reference compound]
[d] CO/N=C(\C(=O)N[C@@H]1C(=O)N2C(C(=O)[O-])=C(C[n+]3ccc4c(c3)[nH]c(=O)n4C)CS[C@H]12)c1nsc(N)n1 [Ex. 6]
Rank order required: MIC, descending. Answer by naming the labels in the order asked.
a, d, b, c
(a: 6.25 µg/mL, d: 1.56 µg/mL, b: 0.78 µg/mL, c: 0.39 µg/mL)

* * *

System: P.aeruginosa ATCC27853
test: In vitro antibacterial activity, minimum inhibitory concentration
Assay type: cell-based
conditionNotes: Pseudomonas aeruginosa; P.aeruginosa ATCC27853; read-out: Minimum Inhibitory Concentration (MIC)
observedProperty: MIC (µg/mL)

Answered cases to consult:
In [3]: df
Out[3]:
                                   molecule  recordednumber
0  Nc1nc(/C(=N/OCF)C(=O)N[C@@H]2C(=O)N3C(C(=O)[O-])=C(C[n+]4ccc5[nH]c(=O)[nH]c5c4)CS[C@H]23)ns1 [Ex. 9]            0.78
1  CO/N=C(\C(=O)N[C@@H]1C(=O)N2C(C(=O)[O-])=C(C[n+]3ccc4[nH]c(=NC#N)[nH]c4c3)CS[C@H]12)c1nsc(N)n1 [Ex. 4]              25
2  Nc1nc(/C(=N/OCC(=O)O)C(=O)N[C@@H]2C(=O)N3C(C(=O)[O-])=C(C[n+]4ccc5[nH]c(=O)[nH]c5c4)CS[C@H]23)ns1 [Ex. 8]            3.13
3  CO/N=C(\C(=O)N[C@@H]1C(=O)N2C(C(=O)O)=C(COC(C)=O)CS[C@H]12)c1csc(N)n1 [CTX, Cefotaxime, reference compound]              25
4  CO/N=C(\C(=O)N[C@@H]1C(=O)N2C(C(=O)[O-])=C(C[n+]3ccc4[nH]c(=NC#N)[nH]c4c3)CS[C@H]12)c1csc(N)n1 [Ex. 3]            6.25
5  CO/N=C(\C(=O)N[C@@H]1C(=O)N2C(C(=O)[O-])=C(C[n+]3cccc4c3CCC4)CS[C@H]12)c1csc(N)n1 [CPR, Cefpirome, reference compound]            3.13
6  CO/N=C(\C(=O)N[C@@H]1C(=O)N2C(C(=O)[O-])=C(C[n+]3ccc4[nH]c(=O)[nH]c4c3)CS[C@H]12)c1nsc(N)n1 [Ex. 5]            0.78
7  CO/N=C(\C(=O)N[C@@H]1C(=O)N2C(C(=O)[O-])=C(C[n+]3ccc4c(c3)NC(=C[N+](=O)[O-])N4)CS[C@H]12)c1csc(N)n1 [Ex. 1]              50

[P] CO/N=C(\C(=O)N[C@@H]1C(=O)N2C(C(=O)[O-])=C(C[n+]3ccc4c(c3)[nH]c(=O)n4C)CS[C@H]12)c1nsc(N)n1 [Ex. 6]
[Q] Nc1nc(/C(=N/O)C(=O)N[C@@H]2C(=O)N3C(C(=O)[O-])=C(C[n+]4ccc5[nH]c(=O)[nH]c5c4)CS[C@H]23)ns1 [Ex. 7]
Field: lower recorded MIC (choose P or Q ) Bench note: the answer is the label of the chosen record.
P
